Target: Forkhead box protein O1 (Homo sapiens)
Conditions: HEK293, dose 1-50000 nM
Description: Inhibition of human FOXO1 expressed in HEK293 cells at 1 nM to 50 uM by Dual-Glo luciferase assay relative to control
Observation Type: inhibition

CC(=O)Nc1cc(-c2nc3ccccc3[nH]2)n[nH]1 ... < 40%
COc1ccc(C(=O)Nc2cc(-c3nc4cc(C(F)(F)F)ccc4[nH]3)[nH]n2)cc1Cl ... > 40%
CN1CCC(c2ccc(C(=O)Nc3cc(-c4nc5ccccc5[nH]4)n[nH]3)cc2)CC1 ... > 40%

Would you kindly look at the next entry?
Query: inhibition; subject: Nc1cc(-c2nc3ccccc3[nH]2)n[nH]1 < 40%

====

Experiment: Metabolic stability in human hepatocytes assessed as compound remaining at 0.3 uM measured upto 90 mins by LC-MS/MS analysis
Assay type: ADME, cell-based, Hepatocyte
Details: read-out: Stability
Observation Type: remaining at 1.5 h, 0.3 µM (%)
All answers are understood in %, so give the number only.

Query: remaining at 1.5 h, 0.3 µM; subject: O=C(Nc1cc(-c2nc3ccccc3[nH]2)n[nH]1)c1ccc(N2CCNCC2)cc1 110
